- study-system: 5-hydroxytryptamine receptor 4 (Rattus norvegicus)
- Sequence (Q62758 whole entry): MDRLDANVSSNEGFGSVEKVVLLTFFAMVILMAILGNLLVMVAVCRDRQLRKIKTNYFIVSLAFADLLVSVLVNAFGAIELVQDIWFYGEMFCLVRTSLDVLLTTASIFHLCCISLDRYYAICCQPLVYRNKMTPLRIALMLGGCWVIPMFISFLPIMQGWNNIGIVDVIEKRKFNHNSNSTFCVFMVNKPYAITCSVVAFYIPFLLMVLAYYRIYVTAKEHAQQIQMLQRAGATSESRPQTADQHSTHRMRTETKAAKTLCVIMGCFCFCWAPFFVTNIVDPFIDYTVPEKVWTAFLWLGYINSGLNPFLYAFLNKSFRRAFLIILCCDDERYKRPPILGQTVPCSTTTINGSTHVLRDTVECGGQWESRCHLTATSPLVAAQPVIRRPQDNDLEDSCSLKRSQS
- protocol-description: Compound was tested against 5-HT4 receptor through agonism of 5-HT mediated relaxation of rat, carbachol contracted esophageal muscularis mucosae
pEC50: −log10 of the molar value.
As shown below, each of these compounds has a reported pEC50 value.

# compound-string, pEC50
records = [
    ("CCCOc1cc(N)c(Cl)cc1C(=O)CCCCN1CCCCC1", 5.70),
    ("COc1cc(N)c(Cl)cc1C(=O)CCCCN1CCCCC1", 7.40),
]

###

Here's a batch of compounds along with measured Ki for 5-hydroxytryptamine receptor 4 (Cavia porcellus, UniProt O70528).

# compound-string, Ki [nM]
rows = [
    ("CCCCCN1CCC(CCC(=O)c2cc(Cl)c(N)cc2OCc2cc(OC)cc(OC)c2)CC1", 0.813),
    ("COc1cc(COc2cc(N)c(Cl)cc2C(=O)CCC2CCN(CCN(C)S(C)(=O)=O)CC2)cc(OC)c1", 0.468),
    ("CS(=O)(=O)NCCN1CCC(CCC(=O)c2cc(Cl)c(N)cc2OCc2ccccc2)CC1", 1.78),
]

###

- study-system: 5-hydroxytryptamine receptor 4 (Rattus norvegicus) (UniProt Q62758)
- protocol-description: Compound was tested against 5-HT4 receptor through antagonism of 5-HT mediated relaxation of rat, carbachol contracted esophageal muscularis mucosae
- Type: functional
readout-name: pKb

# compound-string, readout-name, reading
records = [
    ("COc1cc(COc2cc(N)c(Cl)cc2C(=O)CCCCN2CCC(OC)CC2)cc(OC)c1", "pKb", 8.4),
    ("COc1cc(COc2cc(N)c(Cl)cc2C(=O)CCCCN2CCC(C(N)=O)CC2)cc(OC)c1", "pKb", 8.4),
    ("COc1cc(COc2cc(N)c(Cl)cc2C(=O)CCCCN2CCC(CCNS(C)(=O)=O)CC2)cc(OC)c1", "pKb", 8.1),
    ("CS(=O)(=O)NCCN1CCC(CCC(=O)c2cc(Cl)c(N)cc2OCc2ccccc2)CC1", "pKb", 8.1),
    ("COc1cc(COc2cc(N)c(Cl)cc2C(=O)CCC2CCN(CCCNS(C)(=O)=O)CC2)cc(OC)c1", "pKb", 8.8),
    ("CCCCCN1CCC(CCC(=O)c2cc(Cl)c(N)cc2OCc2cc(OC)cc(OC)c2)CC1", "pKb", 9.1),
    ("COc1cc(COc2cc(N)c(Cl)cc2C(=O)CCCCN2CCC(O)CC2)cc(OC)c1", "pKb", 8.3),
    ("COc1ccc(CCOc2cc(N)c(Cl)cc2C(=O)CCCCN2CCCCC2)cc1OC", "pKb", 6.8),
    ("COc1cc(COc2cc(N)c(Cl)cc2C(=O)CCCCN2CCC(C)CC2)cc(OC)c1", "pKb", 8.3),
    ("COc1cc(COc2cc(N)c(Cl)cc2C(=O)CCCCN2CCC(NS(C)(=O)=O)CC2)cc(OC)c1", "pKb", 8.4),
    ("CCCCN1CCC(CCC(=O)c2cc(Cl)c(N)cc2OCc2cc(OC)cc(OC)c2)CC1", "pKb", 8.9),
    ("COc1cc(COc2cc(N)c(Cl)cc2C(=O)CCCCN2CCC(NC(N)=O)CC2)cc(OC)c1", "pKb", 8.5),
    ("COc1ccc(COc2cc(N)c(Cl)cc2C(=O)CCCCN2CCCCC2)cc1", "pKb", 8.4),
    ("CCOc1cc(N)c(Cl)cc1C(=O)CCCCN1CCCCC1", "pKb", "< 7"),
    ("COc1cc(COc2cc(N)c(Cl)cc2C(=O)CCCCN2CCCCC2)cc(OC)c1", "pKb", 8.5),
    ("COc1cc(COc2cc(N)c(Cl)cc2C(=O)CCCCN2CCC(c3ccccc3)CC2)cc(OC)c1", "pKb", 7.7),
    ("COc1ccc(COc2cc(N)c(Cl)cc2C(=O)CCCCN2CCCCC2)cc1OC", "pKb", 8.5),
    ("Cn1cc(C(=O)OCC2CCN(CCNS(C)(=O)=O)CC2)c2ccccc21", "pKb", 9),
    ("COc1cc(COc2cc(N)c(Cl)cc2C(=O)CCC2CCN(CCN(C)S(C)(=O)=O)CC2)cc(OC)c1", "pKb", 9.1),
    ("CCCC1CCN(CCCCC(=O)c2cc(Cl)c(N)cc2OCc2cc(OC)cc(OC)c2)CC1", "pKb", 7.7),
    ("COc1cc(COc2cc(N)c(Cl)cc2C(=O)CCCCN2CCC(CNS(C)(=O)=O)CC2)cc(OC)c1", "pKb", 8.9),
    ("COc1cc(COc2cc(N)c(Cl)cc2C(=O)CCC2CCN(CCNS(C)(=O)=O)CC2)cc(OC)c1", "pKb", 9.2),
]

The reported numbers originate from ChEMBL document CHEMBL1152051.
